Molecular target: E. coli K12 PBP3 (Escherichia coli)
Sequence (P0AD68 1-577): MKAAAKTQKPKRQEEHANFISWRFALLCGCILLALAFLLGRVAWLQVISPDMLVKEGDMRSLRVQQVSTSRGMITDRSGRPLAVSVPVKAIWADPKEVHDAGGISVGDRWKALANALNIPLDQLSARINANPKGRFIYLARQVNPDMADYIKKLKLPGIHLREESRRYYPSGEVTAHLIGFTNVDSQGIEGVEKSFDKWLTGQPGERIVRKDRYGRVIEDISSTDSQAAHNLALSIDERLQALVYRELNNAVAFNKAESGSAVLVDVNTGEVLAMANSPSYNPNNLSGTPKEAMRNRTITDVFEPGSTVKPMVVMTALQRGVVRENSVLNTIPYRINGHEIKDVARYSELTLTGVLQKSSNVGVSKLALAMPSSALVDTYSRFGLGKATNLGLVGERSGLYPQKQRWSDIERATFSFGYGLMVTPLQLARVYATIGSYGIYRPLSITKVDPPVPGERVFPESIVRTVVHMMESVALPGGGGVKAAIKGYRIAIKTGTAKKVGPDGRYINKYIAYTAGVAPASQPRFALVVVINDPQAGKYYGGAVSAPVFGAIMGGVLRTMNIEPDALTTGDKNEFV
Assay: biochemical
pEC50: −log10 of the molar value.
metric name: pEC50

INSERT INTO measurements (molecule, test_result) VALUES
  ('NCCCN1CCN(C(=O)N[C@@H](C(=O)N[C@H]2Cc3ccc(F)c(C(=O)O)c3OB2O)c2c(F)cc(O)c(O)c2F)C(=O)C1=O (single isomer, unassigned)', '> 4.52'),
  ('NS(=O)(=O)NC(C(=O)N[C@H]1Cc2cccc(C(=O)O)c2OB1O)c1ccc(C(=O)O)c(F)c1 (stereo partly drawn)', '< 3.30'),
  ('NCCN1CCN(C(=O)N[C@@H](C(=O)N[C@H]2Cc3cccc(C(=O)O)c3OB2O)c2c(F)cccc2Cl)C(=O)C1=O (single isomer, unassigned)', '3.30 to 4.52');
